System: C33A
measurement-protocol: Primary qHTS to identify gynecologic anti-cancer compounds using libraries of approved drugs and bioactive compounds (AID 1345084); also: nearly all actives have a fitted effect of over 55% in size
setup-conditions: Gynecologic cancer cell panel viability, ATPlite luminescence, 48 h; series mostly up to 57.5 µM
Records with an inconclusive call do not appear. Calls of active or inactive are those of the source. Calls follow the shape of the dose curve; as a rule, active = well fitted cell-killing curve with a large enough effect; inconclusive = small, poorly fitted or top-dose-only effect, or effect the other way; inactive = flat fitted curve, though single readings scatter.
Use one of these outcomes when replying: 1 for active, 0 for inactive

compound=CC(=O)O[C@]1(C(C)=O)CC[C@H]2[C@@H]3CCC4=CC(=O)CCC4=C3[C@@H](c3ccc(N(C)C)cc3)C[C@@]21C tgt=C33A class_label=0
compound=CN1CCN(C2=Nc3ccccc3Nc3ccc(OS(=O)(=O)C(F)(F)F)cc32)CC1 tgt=C33A class_label=0
compound=O=C(Nc1cc(C(F)(F)F)ccc1N1CCCCC1)c1ccncc1 tgt=C33A class_label=0
compound=c1ccc(-c2ccc(CNc3nc(-c4ccccn4)nnc3-c3ccccc3)cc2)cc1 tgt=C33A class_label=1
compound="CC1CCCC[C@H]2C(=O)C=C[C@H](O)[C@@H]2CC(=O)O1 (some centres undefined)" tgt=C33A class_label=1
compound="CCC(C)C(=O)Oc1cc(C)ccc1C1(COC(=O)C(C)C)CO1 (centres undefined)" tgt=C33A class_label=0

Record request — test call for CCCCC1CCN(CCCN2C(=O)CCc3ccccc32)CC1
0

Record request — test call for C=C(C)C(=O)OC1CC(CO)CCC/C(CO)=C/C2OC(=O)C(=C)C21 (centres undefined)
0

Record request — test call for CCOC(=O)C1(CCOc2ccccc2)CCN(Cc2ccc(O)c(Cl)c2)CC1
0

Record request — test call for O=C(NCc1ccccc1)c1ccc2c(=O)n(-c3cccc(C(F)(F)F)c3)c(=S)[nH]c2c1
0

Record request — test call for CC(=O)OC1CCC2(C)C(CCC3(C)C2CC=C2C4C(C)C(C)CCC4(C)CCC23C)C1(C)C(=O)O (centres undefined)
0

Record request — test call for Cc1ccc(O)cc1Nc1ccnc(Nc2cccc(C(N)=O)c2)n1
0

Record request — test call for COc1ccc2nc3n[nH]c(C)c3c(NCCOCCO)c2c1
0

Record request — test call for CC(C)(Cc1ccccc1)NCC(O)c1ccc(O)c(NS(C)(=O)=O)c1 (centres undefined)
0

---

measurement-protocol: Primary redox qHTS assay for identification of artifact compounds. (AID 1845223);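 also: 0% = DMSO and 100% = reference compound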
setup-conditions: Amplex Red/HRP redox cycling with DTT, fluorescence; series mostly up to 53.8 µM
Results filed as inconclusive are left out. Calls of active or inactive are those of the source. The call rests on the fitted dose curve; in most records, active means well fitted activation curve with a large enough effect; inconclusive means small, poorly fitted or top-dose-only effect; inactive means flat fitted curve, though single readings scatter.
endpoint-name: redox activity (% of DA3003)

// worked examples, redox activity (% of DA3003) included
molecule="CC(=O)C1=CCC2C3CC=C4CC(O)CC(O)C4(C)C3C(O)CC12C (stereo not given)" observed_result=inactive
molecule=Cc1ccc(C)c(NS(=O)(=O)c2cc(C(=O)Nc3ccccc3-c3ccccc3)ccc2C)c1 observed_result=inactive
molecule="Cc1c(NC(=O)OCC2COCCN2)cn2ncnc(Nc3ccc4c(cnn4Cc4cccc(F)c4)c3)c12 (stereo not given)" observed_result=inactive
molecule=CC(C)n1nc(C#Cc2ccccc2)c2c(N)ncnc21 observed_result=inactive
molecule="C=CC(=O)N1CCCC(n2nc(-c3ccc(Oc4ccccc4)cc3)c3c(N)ncnc32)C1 (stereo not given)" observed_result=inactive

State the recorded redox activity (% of DA3003) for this entry: COc1ccc(S(=O)(=O)Nc2cc(Cl)cc(Cl)c2OC)cc1N1CCNCC1
inactive

State the recorded redox activity (% of DA3003) for this entry: C=C1C(=O)O[C@H]2/C=C(/C)[C@@H](OC(C)=O)C/C=C(\C)C[C@@H](OC(=O)/C(=C/C)COC(=O)/C(=C/C)CO)[C@@H]12
inactive

State the recorded redox activity (% of DA3003) for this entry: S=C(c1ccc(-c2ccc(Cl)c(Cl)c2)o1)N1CCCCC1
inactive

State the recorded redox activity (% of DA3003) for this entry: O=C(Nc1ccccc1)N1CCC(Cc2cnc3ccccc3c2)CC1
inactive

State the recorded redox activity (% of DA3003) for this entry: Cn1ncc(Cl)c1-c1cc(C(=O)NC(CN)Cc2ccc(F)c(F)c2)oc1Cl (stereo not given)
inactive
